These entries and their values trace back to ChEMBL document CHEMBL5360551.

Each entry below carries its recorded Emax.
tested target: Probable G-protein coupled receptor 34 (Mus musculus) (UniProt Q9R1K6)
Sequence (Q9R1K6 whole entry): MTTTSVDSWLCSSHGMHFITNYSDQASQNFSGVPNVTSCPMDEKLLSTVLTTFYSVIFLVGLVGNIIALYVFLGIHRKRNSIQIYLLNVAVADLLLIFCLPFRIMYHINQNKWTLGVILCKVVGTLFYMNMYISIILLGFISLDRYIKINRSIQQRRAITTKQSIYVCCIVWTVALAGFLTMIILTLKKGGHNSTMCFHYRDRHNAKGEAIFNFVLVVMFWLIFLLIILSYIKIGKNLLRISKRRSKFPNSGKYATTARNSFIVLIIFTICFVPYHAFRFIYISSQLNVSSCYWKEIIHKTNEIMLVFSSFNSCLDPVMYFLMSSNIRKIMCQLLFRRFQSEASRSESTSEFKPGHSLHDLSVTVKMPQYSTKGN
test summary: Agonist activity at mouse LPS1/GPR34 transfected in HEK293-A cells co-transfected with AP-TGFalpha assessed as AP-TGFalpha release by TGFalpha shedding assay relative to LysoPS
Type: functional, cell-based
run parameters: filed as agonist

>  <molecule>
N[C@@H](COP(=O)(O)OC1CCCO[C@@H]1COC(=O)CCc1ccccc1OCc1cccc(Oc2ccccc2)c1)C(=O)O (some centres undefined)

>  <Emax>
117%

$$$$
>  <molecule>
CCCCCCCCCCCOc1ccccc1CCC(=O)OCCCOP(=O)(O)OC[C@H](N)C(N)=O

>  <Emax>
94%

$$$$
>  <molecule>
CC(C)(C)c1ccc(-c2cccc(COc3ccccc3CCC(=O)OCCCOP(=O)(O)OC[C@H](N)C(=O)O)c2)cc1

>  <Emax>
107%

$$$$
>  <molecule>
N[C@@H](COP(=O)(O)OCCCOC(=O)CCc1ccccc1OCc1cccc(Oc2ccccc2)c1)C(=O)O

>  <Emax>
124%

$$$$

###

tested target: Probable G-protein coupled receptor 34 (Mus musculus)
Sequence (Q9R1K6 whole entry): as above
test summary: Agonist activity at mouse LPS1/GPR34 transfected in HEK293-A cells co-transfected with AP-TGFalpha assessed as AP-TGFalpha release by TGFalpha shedding assay
Format: functional, cell-based
observation type: EC50

>  <molecule>
N[C@@H](COP(=O)(O)OC1CCCO[C@@H]1COC(=O)CCc1ccccc1OCc1cccc(Oc2ccccc2)c1)C(=O)O (stereo partly drawn)

>  <recorded value>
180 nM

$$$$
>  <molecule>
Cc1cc(C)cc(-c2cccc(COc3ccccc3CCC(=O)OCCCOP(=O)(O)OC[C@H](N)C(=O)O)c2)c1

>  <recorded value>
> 3000 nM

$$$$
>  <molecule>
CC(C)(C)c1ccc(-c2cccc(COc3ccccc3CCC(=O)OCCCOP(=O)(O)OC[C@H](N)C(=O)O)c2)cc1

>  <recorded value>
950 nM

$$$$
>  <molecule>
N[C@@H](COP(=O)(O)OCCCOC(=O)CCc1ccccc1OCc1cccc(-c2ccccc2)c1)C(=O)O

>  <recorded value>
> 3000 nM

$$$$
>  <molecule>
CCCCCCCCCCCOc1ccccc1CCC(=O)OCCCOP(=O)(O)OC[C@H](N)C(N)=O

>  <recorded value>
1600 nM

$$$$
>  <molecule>
CCCCCCCC/C=C\CCCCCCCC(=O)OCCCOP(=O)(O)OC[C@H](N)C(N)=O

>  <recorded value>
> 3000 nM

$$$$
>  <molecule>
CCCCCCOc1cccc(COc2ccccc2CCC(=O)OCCCOP(=O)(O)OC[C@H](N)C(N)=O)c1

>  <recorded value>
> 3000 nM

$$$$
>  <molecule>
CC(C)(C)c1cc(-c2cccc(COc3ccccc3CCC(=O)OCCCOP(=O)(O)OC[C@H](N)C(=O)O)c2)cc(C(C)(C)C)c1

>  <recorded value>
> 3000 nM

$$$$

###

tested target: UniProt:Q8BFU7
Sequence (Q8BFU7 whole entry): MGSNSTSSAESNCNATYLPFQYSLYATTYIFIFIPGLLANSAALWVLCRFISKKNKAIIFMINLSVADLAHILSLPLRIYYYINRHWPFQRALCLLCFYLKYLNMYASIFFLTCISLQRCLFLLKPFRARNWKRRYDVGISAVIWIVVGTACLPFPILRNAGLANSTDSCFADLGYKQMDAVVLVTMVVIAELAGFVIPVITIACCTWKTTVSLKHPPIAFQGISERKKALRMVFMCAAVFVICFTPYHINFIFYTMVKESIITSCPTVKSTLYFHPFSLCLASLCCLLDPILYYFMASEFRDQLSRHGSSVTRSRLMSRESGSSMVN
test summary: Agonist activity at mouse LPS2/P2Y10 transfected in HEK293-A cells co-transfected with AP-TGFalpha assessed as AP-TGFalpha release by TGFalpha shedding assay relative to LysoPS
Type: functional, cell-based
run parameters: filed as agonist
Listed compounds paired with reported Emax

>  <smiles record>
N[C@@H](COP(=O)(O)OCCCOC(=O)CCc1ccccc1Oc1ccc(-c2ccc(C34C[C@H]5C[C@@H](C3)C[C@@H](C4)C5)cc2)cc1)C(=O)O

>  <tested target>
UniProt:Q8BFU7

>  <Emax>
68%

$$$$
>  <smiles record>
Cc1cc(C)cc(Oc2ccccc2CCC(=O)OCCCOP(=O)(O)OC[C@H](N)C(=O)O)c1

>  <tested target>
UniProt:Q8BFU7

>  <Emax>
114%

$$$$
>  <smiles record>
CCCCCCCC/C=C\CCCCCCCC(=O)OCCCOP(=O)(O)OC[C@H](N)C(N)=O

>  <tested target>
UniProt:Q8BFU7

>  <Emax>
112%

$$$$
>  <smiles record>
N[C@@H](COP(=O)(O)OCCCOC(=O)CCc1ccccc1Oc1ccc(-c2ccc(-c3ccccc3)cc2)cc1)C(=O)O

>  <tested target>
UniProt:Q8BFU7

>  <Emax>
70%

$$$$
